# tested.on: Homeobox protein Hox-A13 (Mus musculus) (UniProt Q62424)
# Sequence (Q62424 whole entry, looked up): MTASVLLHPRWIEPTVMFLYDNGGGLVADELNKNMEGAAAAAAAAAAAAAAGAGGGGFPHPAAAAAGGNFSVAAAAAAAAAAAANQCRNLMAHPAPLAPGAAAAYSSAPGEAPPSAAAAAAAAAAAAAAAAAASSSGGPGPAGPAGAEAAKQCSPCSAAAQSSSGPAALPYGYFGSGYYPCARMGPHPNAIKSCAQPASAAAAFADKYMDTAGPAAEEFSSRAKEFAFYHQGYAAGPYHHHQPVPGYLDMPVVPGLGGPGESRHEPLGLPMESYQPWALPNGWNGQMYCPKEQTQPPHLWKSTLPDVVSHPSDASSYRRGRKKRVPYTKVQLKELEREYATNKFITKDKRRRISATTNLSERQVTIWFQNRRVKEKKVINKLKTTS
# assay.details: inhibitors of HoxA13-DNA binding, primary screen, biochemical, fluorescence polarization, labeled oligonucleotide (AID 1185)
# condition.label: 15 min, higher = more signal, called active from +8 up or from −8 down
measurement.label: z-score
Respond numerically, and do not add a unit to the figure.

Dear colleague, please send me the reported z-score for O=C(N1CCOCC1)[C@@]1(CCS(=O)(=O)c2ccccc2)N=C(c2ccc(OCCCO)cc2)O[C@H]1c1ccccc1 when you can.
-5.53

----------
# assay.details: basal MM1S mitochondrial membrane potential changes, profiling panel, cell-based, JC-1 fluorescence, 24 h, 100 nL compound (AID 1170); note: test concentration not given here
# condition.label: higher = more signal
measurement.label: z-score
Respond with the number and no other words.

Examples with answers:
Cc1ccc(S[C@]2(C(=O)NCC(C)C)CC(=O)N(C3Cc4ccccc4C3)[C@@H]2c2ccc(CO)cc2I)cc1 ... -1.76
COc1cc(NN2C(C(O)c3ccc(I)cc3)C=CC3C(=O)N(c4ccccc4)C(=O)C32)cc(OC)c1OC (centres undefined) ... -1.4
CCc1cccc(NC(=O)O[C@H]2[C@H](OC(=O)Nc3ccccc3)[C@H](OC(=O)Nc3ccccc3)[C@@H](OC)O[C@@H]2CO)c1 ... -2.32

We now examine a further molecule.
Please give the documented z-score of C=C(C(=O)CC[C@@H](OC(=O)c1ccccc1-c1ccccc1C(=O)O)c1ccccc1OCCO)C(C)C
-0.281

----------
Measured composite z-score, listed per entry for reference.
# Tested on: Sam68 (KHDRBS1)
# assay.details: Sam68 small-molecule binders, primary screen, biochemical, small-molecule microarray, 635 nm fluorescence (AID 1125);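 note: score merges 667 nm channel intensity with signal to noise over triplicate slides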
# condition.label: small-molecule microarray binding, higher = more signal
Give the figure by itself; no unit, no explanation.

Example compounds with recorded composite z-score:
Cc1ccc(S[C@]2(C(=O)NC(C)C)CC(=O)N(C(C)C)[C@@H]2c2ccc(CO)cc2I)cc1 ... 1.12
CO[C@H]1O[C@H](CO)[C@@H](OC(=O)Nc2cccc(F)c2)[C@H](OC(=O)Nc2ccccc2-c2ccccc2)[C@H]1OC(=O)Nc1ccccc1-c1ccccc1 ... 1.3
O=C1C2C=CC(C(O)C=Cc3ccc([N+](=O)[O-])cc3)N(Nc3ccccc3)C2C(=O)N1c1ccccc1 (configuration not stated) ... 1.24
CCOC(=O)C1=CCC(c2ccco2)N(S(=O)(=O)c2ccc(C)cc2)C1 (configuration not stated) ... 1.22
COCCOC(=O)N1C(=O)[C@@]2(c3cc(C#CC4(O)CCCCCC4)ccc31)[C@H](C(=O)N1CCN(c3ncccn3)CC1)[C@H]1C(=O)O[C@H](c3ccccc3)[C@H](c3ccccc3)N1[C@@H]2c1ccccc1OCCO ... 1.26

Input CS(=O)(=O)CCOC(=O)C1=CC(CCCO)=CC(C2CC2)N(Cc2cccc(OC(F)(F)F)c2)C=C1C(=O)OCCS(C)(=O)=O (configuration not stated) , output reported composite z-score.
1.33

Complete the entry with composite z-score for O=C1N(CCS(=O)(=O)c2ccccc2)Cc2ccccc2[C@@H]2OC(c3ccc(OCCCO)cc3)=N[C@]12CCS(=O)(=O)c1ccccc1
1.31

----------
# assay.details: CREB reporter modulators without forskolin, primary screen, cell-based, PC12, CRE-LacZ reporter, unstimulated (AID 1145)
# condition.label: no forskolin, luminescence, 4.5 h, higher = more signal, called active from +8 up or from −8 down
measurement.label: z-score
Respond with the number and no other words.

Illustrative cases are given below, each with its answer.
COC(=O)[C@@]1(Cc2ccc(F)cc2)[C@H]2c3cc(C(=O)N(C)C)n(Cc4ccc(O)c(OC)c4)c3C[C@H]2CN1C(=O)c1ccccc1 ... 0.387
CS(=O)(=O)CCOC(=O)C1=CC(CCCO)=CC(C2CC2)N(Cc2cccc(OC(F)(F)F)c2)C=C1C(=O)OCCS(C)(=O)=O (centres undefined) ... 4.86
CN1C=C(C(=O)OCCS(C)(=O)=O)C(C(=O)OCCS(C)(=O)=O)=CC(c2ccc(CO)cc2)=CC1c1cccs1 (centres undefined) ... 2.34

Give the measured z-score for O=C(O)[C@H]1C[C@H]2C(=O)N[C@@H](Cc3ccccc3)C(=O)N2[C@H]1c1cccc(OCCO)c1
1.23

----------
# assay.details: MM1S myeloma cell viability, profiling panel, resazurin fluorescence, basal, 24 h, PK04 Diversity Set (AID 1174);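 note: MM1S multiple myeloma cell line; test concentration not given here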
# condition.label: higher = more signal, called active from +8 up or from −8 down
Binning of z-score into classes: band A = under -0.6, band B = from -0.6 up to -0.1, band C = -0.1 and over

Solved entries:
CC(C)C[C@@H]1NC(=O)[C@@]23C(=O)N[C@@H](Cc4ccccc4)C2[C@H](C)[C@@]2(C)O[C@H]2C3/C=C/C/C=C\CNC(=O)[C@@H](C)NC1=O (stereo partly drawn) ... band C
COC(=O)C(CC#Cc1ccc2c(c1)[C@]1(C(=O)N2)[C@H](c2ccc(O)cc2)N2[C@H](c3ccccc3)[C@H](c3ccccc3)OC(=O)[C@H]2[C@@H]1C(=O)N1CCCCCCC1)C(=O)OC ... band A
COC(=O)[C@@]1(Cc2ccc(F)cc2)[C@H]2c3cc(C(=O)N(C)C)n(Cc4ccc(O)c(OC)c4)c3C[C@H]2CN1C(=O)c1ccccc1 ... band C
COc1cc(NN2C(C(O)c3ccc(I)cc3)C=CC3C(=O)N(c4ccccc4)C(=O)C32)cc(OC)c1OC (stereo not drawn) ... band A
CN(C)C(=O)[C@]1(CCS(=O)(=O)c2ccccc2)N=C(c2ccc(OCCCO)cc2)O[C@@H]1c1ccccc1 ... band B

Using the reported z-score, which band applies to COc1ccc(NC(=O)O[C@H]2[C@@H]3OC(=O)[C@H](Cc4cccc(Br)c4)C/C=C/C[C@@H](Cc4cccc(Br)c4)C(=O)O[C@H]3[C@@H](OC)O[C@@H]2CO)cc1 ?
band B

Classify this molecule: C=C(/C(=C/C[C@@H](OC(C)=O)c1ccc(OCCO)cc1)c1cc(C(=O)OC)ccc1OC)C(C)C
band B

Form: Item = CCOC(=O)C1=CCC(c2ccccc2)N(S(=O)(=O)c2ccc([N+](=O)[O-])cc2)C1 (stereo not drawn) ; Class = ?
band A

Into which category would you place CN1C(=O)C2C(C1=O)C1C=C(CCCO)C2C(c2cccs2)N1Cc1cc2c(cc1Br)OCO2 (stereo not drawn) ?
band B

Returns: class label. Input: [N-]=[N+]=NCc1ccccc1[C@H]1OC(c2ccc(OCCCO)cc2)=N[C@@]1(CCS(=O)(=O)c1ccccc1)C(=O)NCc1ccccc1
band C

Form: Item = COc1cc(NN2C(C(O)C3CCCCC3)C=CC3C(=O)N(C)C(=O)C32)cc(OC)c1OC (stereo not drawn) ; Class = ?
band A

Given CC1(C)C(=O)C(c2ccccc2)=C2CN3C(=O)N(CCc4ccccc4)C(=O)C3(Cc3ccc(C(F)(F)F)cc3)C=C21 (stereo not drawn) , name the class its z-score places it in.
band A

Hi, small favor: classify COc1ccc(C#Cc2ccc3c(c2)[C@]2(C(=O)N3)[C@H](C(=O)N3CCCCCCC3)[C@H]3C(=O)O[C@H](c4ccccc4)[C@H](c4ccccc4)N3[C@@H]2c2ccc(O)cc2)cc1 by its z-score when you get a moment.
band C

Input COc1cc2c(cc1O)C(c1ccc(CN3CCCC3)cc1)N(C)CC2 (stereo not drawn) ; output its category
band A

Quick check: band for CCOC(=O)C[C@H]1[C@H](OC(=O)c2ccc(C(=O)c3ccccc3)cc2)[C@@H](NC(=O)CC(C)C)c2cc(OCCCO)ccc2N1C(=O)Cc1ccc(OC)cc1
band C

For the record CN(C)C(=O)[C@@]1(CCC(=O)OC(C)(C)C)N=C(c2ccc(OCCCO)cc2)O[C@H]1c1ccccc1CN=[N+]=[N-] , report the class its z-score corresponds to.
band A

Categorize the following entry: C=C(CCCC)C(=O)CC[C@H](OC(=O)c1ccccc1-c1ccccc1C(=O)O)c1ccccc1OCCO
band A

Kindly state the category for this molecule: [N-]=[N+]=Nc1ccccc1C[C@]1(C(=O)O)N=C(c2ccc(OCCCO)cc2)O[C@H]1c1ccccc1N=[N+]=[N-]
band C

The entry to classify is CC(C)C[C@@H]1NC(=O)[C@@H]2C[C@H](C(=O)NCCCCCC[N+](C)(C)C)[C@H](c3cccc(OCCO)c3)N2C1=O ; which class holds it?
band B

Note: place this molecule into its band. Item: C=CCC(OC(C)=O)[C@@H]1[C@@H](N(Cc2ccc(-c3ccccc3)cc2)C(=O)Cc2ccc(F)cc2)c2cc(OCCCO)ccc2N1C(=O)Cc1ccc2ccccc2c1 (stereo partly drawn)
band C

Category of COCCOC(=O)N1C(=O)[C@@]2(c3cc(C#CC4(O)CCCCCC4)ccc31)[C@H](C(=O)N1CCN(c3ncccn3)CC1)[C@H]1C(=O)O[C@H](c3ccccc3)[C@H](c3ccccc3)N1[C@@H]2c1ccccc1OCCO , please.
band B
